- study-system: SUMO-activating enzyme (Homo sapiens, UniProt Q9UBT2)
- Sequence (Q9UBE0 whole entry): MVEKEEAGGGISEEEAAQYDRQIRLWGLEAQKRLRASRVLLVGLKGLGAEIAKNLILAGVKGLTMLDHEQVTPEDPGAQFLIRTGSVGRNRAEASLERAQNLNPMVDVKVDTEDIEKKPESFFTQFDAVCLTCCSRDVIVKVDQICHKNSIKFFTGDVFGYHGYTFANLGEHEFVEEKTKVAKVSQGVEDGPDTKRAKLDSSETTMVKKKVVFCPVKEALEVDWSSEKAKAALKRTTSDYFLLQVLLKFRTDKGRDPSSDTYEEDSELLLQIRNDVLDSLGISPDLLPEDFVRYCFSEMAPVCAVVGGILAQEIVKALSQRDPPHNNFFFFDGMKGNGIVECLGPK
- Sequence (Q9UBT2 whole entry): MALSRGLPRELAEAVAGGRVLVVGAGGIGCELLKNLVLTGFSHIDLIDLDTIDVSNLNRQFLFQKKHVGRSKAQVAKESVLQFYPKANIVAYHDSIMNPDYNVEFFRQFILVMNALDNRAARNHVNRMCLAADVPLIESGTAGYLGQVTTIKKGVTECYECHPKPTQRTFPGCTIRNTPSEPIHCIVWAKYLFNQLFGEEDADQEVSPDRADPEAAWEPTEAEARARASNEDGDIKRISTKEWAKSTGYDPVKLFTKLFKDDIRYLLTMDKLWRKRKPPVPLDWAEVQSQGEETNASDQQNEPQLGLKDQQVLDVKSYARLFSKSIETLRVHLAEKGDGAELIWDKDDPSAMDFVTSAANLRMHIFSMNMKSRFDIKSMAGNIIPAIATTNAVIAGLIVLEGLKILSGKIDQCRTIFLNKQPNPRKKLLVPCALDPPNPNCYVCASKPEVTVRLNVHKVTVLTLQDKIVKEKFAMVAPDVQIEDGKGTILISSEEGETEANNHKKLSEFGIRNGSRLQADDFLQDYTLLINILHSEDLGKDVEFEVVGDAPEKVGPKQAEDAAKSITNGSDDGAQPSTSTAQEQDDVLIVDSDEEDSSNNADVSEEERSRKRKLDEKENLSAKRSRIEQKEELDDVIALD
- test-summary: blockers of UBC9-mediated SUMO conjugation – biochemical, AlphaScreen, SUMOylation inhibitor project, confirmation (AID 2018)
- Assay type: functional
Activity calls are given as the source filed them. Rule as the data show it: actives have a measured IC50 and inactives only a lower limit.
Classes used: active, inactive

| compound | assigned-category |
| --- | --- |
| CCOc1cccc2cc(-c3nnc(NCc4ccco4)s3)c(=O)oc12 | active |
| O=C(Cc1ccccc1Cl)NC1(O)C(=O)c2ccccc2C1=O | active |
| CCCCC(=O)NC(c1ccccc1Cl)c1ccc2cccnc2c1O (centres undefined) | active |
| Cc1c(CC(=O)O)c(=O)oc2c(C)c(OCc3ccc(F)cc3Cl)ccc12 | inactive |

These entries and their values trace back to ChEMBL document CHEMBL1201862.
